Readings of ASMS ratio (%) for the listed molecules
target system: Bcl-2 protein (Recombinant Human Bcl-2 Protein) (Homo sapiens)
Construct: purchased Novus NBP2-34889
protocol details: Binding evaluation of mixture library compounds to Bcl-2 using AS-MS (affinity selection mass spectrometry)
assay context: n = 1
Procedure: […] Then, analysis of the 1200 compounds was carried out for samples A, B, and C with TraceFinder 5.1 (Thermo Fisher Scientific) and CHANCE Software (in-house), and the ASMS Ratio (%) was calculated according to the following calculation formula. […]
Express it in %; write the number only.

Just so you know, measured ASMS ratio (%) for CCOc1cncc(C#Cc2cncc(C(=O)N3CCN(c4ccc(C(=O)NS(=O)(=O)c5ccc(NCCSc6ccccc6)c(C(F)(F)F)c5)nn4)CC3)c2)c1 [B2R010-01] came out at 0.0

Just so you know, measured ASMS ratio (%) for CCOc1cccc(-c2csc(C(=O)N3CCN(c4ccc(C(=O)NS(=O)(=O)CCC(F)(F)F)cc4)CC3)c2)c1 [B2N023-01] came out at 0.0

Just so you know, measured ASMS ratio (%) for CCOc1cncc(-c2cc(OC)c(CN3CCN(c4ccc(C(=O)NS(=O)(=O)CCC(F)(F)F)nn4)CC3)c(OC)c2)c1 [B2N086-01] came out at 0.0

---

Readings of ASMS ratio (%) for the listed compounds
target system: Bcl-2 protein (Recombinant Human Bcl-2 Protein) (Homo sapiens, UniProt P10415)
Construct: purchased Novus NBP2-34889
Sequence (P10415 whole entry): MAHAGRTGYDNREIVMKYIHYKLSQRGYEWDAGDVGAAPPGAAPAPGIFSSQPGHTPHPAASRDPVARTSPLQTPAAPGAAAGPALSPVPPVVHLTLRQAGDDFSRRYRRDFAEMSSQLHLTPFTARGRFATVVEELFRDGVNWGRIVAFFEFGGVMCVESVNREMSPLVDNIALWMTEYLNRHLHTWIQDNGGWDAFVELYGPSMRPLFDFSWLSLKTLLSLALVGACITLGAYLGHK
protocol details: Binding evaluation of mixture library compounds to Bcl-2 using AS-MS (affinity selection mass spectrometry)
assay context: n = 2
Express it in %; write the number only.

Below: 7 compounds and their reported ASMS ratio (%).
CCOc1cccc(-c2cnn(-c3cc(C(=O)N4CCN(c5ccc(C(=O)NS(C)(=O)=O)cc5)CC4)cc(C(F)(F)F)c3)c2)c1 [B2I043-01]    0.0
CCOc1cncc(-c2ccc(C(=O)N3CCN(c4ccc(C(=O)NS(=O)(=O)C(C)(C)C)nn4)CC3)cc2C)c1 [B2L004-01]    9.3
CCOc1cccc(-c2ccc(CN3CCN(c4ccc(C(=O)NS(C)(=O)=O)cc4)CC3)cc2F)c1 [B2I051-01]    0.0
CCOc1cncc(-c2ccc(C(=O)N3CCN(c4ccc(C(=O)NS(=O)(=O)CCC(F)(F)F)cc4)CC3)cc2C)c1 [B2N026-01]    −0.7
CCOc1cncc(-c2cc(CN3CCN(c4ccc(C(=O)NS(=O)(=O)CCC(F)(F)F)cc4)CC3)cc(C(F)(F)F)c2)c1 [B2N062-01]    0.0
CCOc1cccc(-c2ccc(CN3CCN(c4ccc(C(=O)NS(C)(=O)=O)cc4)CC3)c(OC)c2)c1 [B2I053-01]    0.0
CCOc1cccc(-c2ccc(C(=O)N3CCN(c4ccc(C(=O)NS(=O)(=O)CCC(F)(F)F)cc4)CC3)cc2C)c1 [B2N025-01]    0.0

// next item, ASMS ratio (%) requested
# ASMS ratio (%) measured on Bcl-2 protein (Recombinant Human Bcl-2 Protein) (Homo sapiens, UniProt P10415) for item CCOc1cccc(C#Cc2cncc(C(=O)N3CCN(c4ccc(C(=O)NS(=O)(=O)C(C)(C)C)cc4)CC3)c2)c1 [B2L031-01] = 0.0

---

target system: Bcl-2 protein (Recombinant Human Bcl-2 Protein) (Homo sapiens)
Construct: purchased Novus NBP2-34889
protocol details: Binding evaluation of mixture library compounds to Bcl-2 using AS-MS (affinity selection mass spectrometry)
assay context: AS-MS on the mixture of 1200 library compounds; ASMS Ratio(%)=(A−C)/B×100; replicate n = 1
test readout: ASMS ratio (%) n = 1
Express it in %; write the number only.

Below: 3 molecules and their reported ASMS ratio (%) n = 1.
CCOc1cncc(-c2csc(CN3CCN(c4ccc(C(=O)Nc5ccc(OC)cc5)nn4)CC3)c2)c1    2.2
CCOc1cncc(-c2ccccc2CCC(=O)N2CCN(c3ccc(C(=O)Nc4ccc(OC)cc4)cc3)CC2)c1    0.1
CCOc1cccc(C#Cc2cncc(C(=O)N3CCN(c4ccc(C(=O)N(CC)CC)cc4)CC3)c2)c1    0.1

// next item, ASMS ratio (%) n = 1 requested
# ASMS ratio (%) n = 1 measured on Bcl-2 protein (Recombinant Human Bcl-2 Protein) (Homo sapiens) for item CCOc1cccc(-c2ccc(CN3CCN(c4ccc(C(=O)Nc5ccc(OC)cc5)cc4)CC3)c3ccccc23)c1 = 7.5

---

Readings of ASMS ratio (%) for the listed molecules
target system: Bcl-2 protein (Recombinant Human Bcl-2 Protein) (Homo sapiens, UniProt P10415)
Construct: purchased Novus NBP2-34889
protocol details: Binding evaluation of mixture library compounds to Bcl-2 using AS-MS (affinity selection mass spectrometry)
assay context: n = 1
Express it in %; write the number only.

Below: 3 molecules and their reported ASMS ratio (%).
CCOc1cncc(-c2cc(C(=O)N3CCN(c4ccc(C(=O)NS(=O)(=O)C(C)(C)C)cc4)CC3)cc(C(F)(F)F)c2)c1    −0.2
CCOc1cncc(-c2cnn(-c3cc(C(=O)N4CCN(c5ccc(C(=O)NS(C)(=O)=O)cc5)CC4)cc(C(F)(F)F)c3)c2)c1    0.0
CCOc1cncc(C#Cc2cncc(C(=O)N3CCN(c4ccc(C(=O)NS(=O)(=O)CCC(F)(F)F)nn4)CC3)c2)c1    0.0

// next item, ASMS ratio (%) requested
Just so you know, measured ASMS ratio (%) for CCOc1cncc(C#Cc2ccccc2CN2CCN(c3ccc(C(=O)NS(=O)(=O)CCC(F)(F)F)cc3)CC2)c1 came out at 0.0

---

target system: Bcl-2 protein (Recombinant Human Bcl-2 Protein) (Homo sapiens)
Construct: purchased Novus NBP2-34889
protocol details: Binding evaluation of mixture library compounds to Bcl-2 using AS-MS (affinity selection mass spectrometry)
assay context: n = 2
test readout: ASMS ratio (%)
Express it in %; write the number only.

Below: 5 compounds and their reported ASMS ratio (%).
CCOc1cccc(-c2cc(CN3CCN(c4ccc(C(=O)NS(C)(=O)=O)nn4)CC3)cc(C(F)(F)F)c2)c1 [B2I087-01]    −0.9
CCOc1cccc(-c2ccccc2CN2CCN(c3ccc(C(=O)NS(C)(=O)=O)nn3)CC2)c1 [B2I071-01]    −1.9
CCOc1cccc(-c2cc(CN3CCN(c4ccc(C(=O)NS(=O)(=O)c5ccc(NCCSc6ccccc6)c(C(F)(F)F)c5)cc4)CC3)cc(C(F)(F)F)c2)c1 [B2R061-01]    −6.0
CCOc1cncc(C#Cc2cc(C(=O)N3CCN(c4ccc(C(=O)NS(=O)(=O)CCC(F)(F)F)cc4)CC3)cc(C(F)(F)F)c2)c1 [B2N042-01]    0.0
CCOc1cccc(-c2ccc(C(=O)N3CCN(c4ccc(C(=O)NS(=O)(=O)c5ccc(NCCSc6ccccc6)c(C(F)(F)F)c5)nn4)CC3)c3ccccc23)c1 [B2R013-01]    7.7

Just so you know, measured ASMS ratio (%) for CCOc1cncc(-c2ccc(CN3CCN(c4ccc(C(=O)NS(=O)(=O)CCC(F)(F)F)nn4)CC3)c(CC)c2)c1 [B2N076-01] came out at 0.0

Just so you know, measured ASMS ratio (%) for CCOc1cncc(-c2csc(CN3CCN(c4ccc(C(=O)NS(C)(=O)=O)nn4)CC3)c2)c1 [B2I094-01] came out at 0.0

Just so you know, measured ASMS ratio (%) for CCOc1cncc(C#Cc2ccccc2C(=O)N2CCN(c3ccc(C(=O)NS(=O)(=O)C(C)(C)C)nn3)CC2)c1 [B2L008-01] came out at 0.0

Just so you know, measured ASMS ratio (%) for CCOc1cncc(C#Cc2cncc(C(=O)N3CCN(c4ccc(C(=O)NS(=O)(=O)c5ccc(NCCSc6ccccc6)c(C(F)(F)F)c5)cc4)CC3)c2)c1 [B2R032-01] came out at 0.0

Just so you know, measured ASMS ratio (%) for CCOc1cncc(-c2cc(CN3CCN(c4ccc(C(=O)NS(C)(=O)=O)cc4)CC3)cc(OC(C)C)c2)c1 [B2I058-01] came out at 0.0

Just so you know, measured ASMS ratio (%) for CCOc1cccc(-c2ccc(CN3CCN(c4ccc(C(=O)NS(=O)(=O)c5ccc(NCCSc6ccccc6)c(C(F)(F)F)c5)cc4)CC3)cc2F)c1 [B2R051-01] came out at −1.8

---

target system: Bcl-2 protein (Recombinant Human Bcl-2 Protein) (Homo sapiens)
Construct: purchased Novus NBP2-34889
protocol details: Binding evaluation of mixture library compounds to Bcl-2 using AS-MS (affinity selection mass spectrometry)
assay context: AS-MS on the mixture of 1200 library compounds; ASMS Ratio(%)=(A−C)/B×100; replicate n = 1
Readings of ASMS ratio (%) n = 1 for the listed compounds
Express it in %; write the number only.

CCOc1cccc(C#Cc2ccccc2CN2CCN(c3ccc(C(=O)Nc4ccc(OC)cc4)cc3)CC2)c1    6.2
CCOc1cncc(-c2ccc(C(C)N3CCN(c4ccc(C(=O)N(C)CC56CC7CC(CC(C7)C5)C6)cc4)CC3)c(F)c2)c1 (stereo not shown)    −39.8
CCOc1cccc(-c2ccc(C(=O)N3CCN(c4ccc(C(=O)Nc5ccc(OC)cc5)nn4)CC3)c3ccccc23)c1    2.2
CCOc1cccc(-c2cnn(-c3cc(C(=O)N4CCN(c5ccc(C(=O)Nc6ccc(OC)cc6)cc5)CC4)cc(C(F)(F)F)c3)c2)c1    2.2
CCOc1cncc(-c2ccc(CN3CCN(c4ccc(C(=O)Nc5ccc(OC)cc5)nn4)CC3)c(OC)c2)c1    1.4

# ASMS ratio (%) n = 1 measured on Bcl-2 protein (Recombinant Human Bcl-2 Protein) (Homo sapiens) for item CCOc1cccc(-c2cc(CN3CCN(c4ccc(C(=O)Nc5ccc(OC)cc5)nn4)CC3)cc(C(F)(F)F)c2)c1 = 2.2

# ASMS ratio (%) n = 1 measured on Bcl-2 protein (Recombinant Human Bcl-2 Protein) (Homo sapiens) for item CCOc1cncc(C#Cc2ccccc2CN2CCN(c3ccc(C(=O)N(C)CC45CC6CC(CC(C6)C4)C5)nn3)CC2)c1 = 7.7

# ASMS ratio (%) n = 1 measured on Bcl-2 protein (Recombinant Human Bcl-2 Protein) (Homo sapiens) for item CCOc1cccc(-c2csc(C(=O)N3CCN(c4ccc(C(=O)N(C)CC56CC7CC(CC(C7)C5)C6)nn4)CC3)c2)c1 = 0.0

# ASMS ratio (%) n = 1 measured on Bcl-2 protein (Recombinant Human Bcl-2 Protein) (Homo sapiens) for item CCOc1cncc(-c2cc(CN3CCN(c4ccc(C(=O)N(C)CC56CC7CC(CC(C7)C5)C6)nn4)CC3)cc(C(F)(F)F)c2)c1 = 2.5

# ASMS ratio (%) n = 1 measured on Bcl-2 protein (Recombinant Human Bcl-2 Protein) (Homo sapiens) for item CCOc1cccc(-c2cc(C(=O)N3CCN(c4ccc(C(=O)Nc5ccc(OC)cc5)nn4)CC3)cc(C(F)(F)F)c2)c1 = 2.5
